pIC50, GST-JAK1(866-1154) (Homo sapiens, UniProt P23458): measured values
Numbers only, as −log10 of the molar value.

O=C(c1c(F)cc(-c2cccc3ncc(-c4cnn(C5CCOCC5)c4)nc23)cc1F)N1CCOCC1 [Example 119] = 6.60

Working through the 6 molecules below one at a time, give pIC50 for each.
1. O=S1(=O)CCN(Cc2c(F)cc(-c3cccc4ncc(-c5cnn(C6CCNCC6)c5)nc34)cc2F)CC1 [Example 96]
2. COc1cc(-c2cnc3cccc(-c4ccc(CC(=O)N5CCOCC5)cc4)c3n2)cc(OC)c1OC [Example 11]
3. COCCOc1ccc(-c2cnc3cccc(-c4ccc(CN5CCOCC5)c(F)c4)c3n2)cc1OC [Example 51]
4. COc1cc(-c2cnc3cccc(-c4ccc(CN5CCS(=O)(=O)CC5)cc4)c3n2)cc(OC)c1OC [Example 19]
5. COc1cc(-c2cnc3cccc(-c4cc(F)c(CN5CCS(=O)(=O)CC5)c(F)c4)c3n2)ccn1 [Example 106]
6. Cc1cc(-c2cnc3cccc(-c4cc(F)c(CN5CCOCC5)c(F)c4)c3n2)ccc1C(=O)N1CCOCC1 [Example 59]

Reply text:
1. 7.28
2. 7.41
3. 6.92
4. 7.23
5. 6.44
6. 6.28
